Exercise: for every item that follows, state its recorded MIC.
# Test system: Pseudomonas aeruginosa
# RUN DESCRIPTION: Antimicrobial activity against colistin resistant Pseudomonas aeruginosa 7197/19 assessed as bacterial growth inhibition incubated for 20 hrs by broth microdilution method
# Type: functional
Positions of bridges follow the written chain, without caps; N, C: chain ends. Non-standard residues stand in square brackets, D forms with d. Residues, ends and D or L forms follow the SMILES beside them. *: point of attachment. d(hhPhe) = N[C@H](CCCc1ccccc1)C(=O)O; hhPhe = N[C@@H](CCCc1ccccc1)C(=O)O; d(hLeu) = CC(C)CC[C@@H](N)C(=O)O; Octanoyl = CCCCCCCC(=O)*; Dab = NCC[C@H](N)C(=O)O
Entry format: amount then unit.

Req: Value lookup for MIC; key = CCCCCCCC(=O)N[C@@H](CCN)C(=O)N[C@H](C(=O)N[C@@H](CCN)C(=O)N[C@H]1CCNC(=O)[C@H]([C@@H](C)O)NC(=O)[C@H](CCN)NC(=O)[C@H](CCN)NC(=O)[C@H](Cc2ccccc2)NC(=O)[C@@H](CCC(C)C)NC(=O)[C@H](CCN)NC1=O)[C@@H](C)O (Octanoyl-[Dab]T[Dab][Dab][Dab][d(hLeu)]F[Dab][Dab]T; lactam 4-C)
Resp: 0.23 µg/mL

Req: Find the recorded MIC belonging to CCCCCCCC(=O)N[C@@H](CCN)C(=O)N[C@H](C(=O)N[C@@H](CCN)C(=O)N[C@H]1CCNC(=O)[C@H]([C@@H](C)O)NC(=O)[C@H](CCN)NC(=O)[C@H](CCN)NC(=O)[C@H](Cc2ccccc2)NC(=O)[C@@H](CCCc2ccccc2)NC(=O)[C@H](CCN)NC1=O)[C@@H](C)O (Octanoyl-[Dab]T[Dab][Dab][Dab][d(hhPhe)]F[Dab][Dab]T; lactam 4-C) and report it.
Resp: 0.5 µg/mL

Req: For CCCCCCCC(=O)N[C@@H](CCN)C(=O)N[C@H](C(=O)N[C@@H](CCN)C(=O)N[C@H]1CCNC(=O)[C@H]([C@@H](C)O)NC(=O)[C@H](CCN)NC(=O)[C@H](CCN)NC(=O)[C@H](CCCc2ccccc2)NC(=O)[C@@H](CC(C)C)NC(=O)[C@H](CCN)NC1=O)[C@@H](C)O (Octanoyl-[Dab]T[Dab][Dab][Dab][dL][hhPhe][Dab][Dab]T; lactam 4-C) , what is its reported MIC?
Resp: 0.5 µg/mL

* * *

# Tested on: Escherichia coli
# RUN DESCRIPTION: Antimicrobial activity against […] Escherichia coli harboring mcr-1 assessed as bacterial growth inhibition incubated for 20 hrs by broth microdilution method
# Type: functional
Positions of bridges follow the written chain, without caps; N, C: chain ends. Non-standard residues stand in square brackets, D forms with d. Residues, ends and D or L forms follow the SMILES beside them. *: point of attachment. hhPhe = N[C@@H](CCCc1ccccc1)C(=O)O; Octanoyl = CCCCCCCC(=O)*; Dab = NCC[C@H](N)C(=O)O
Please provide measured MIC for the entries that follow.
Please respond with the number in µg/mL and leave the unit unwritten.

Req: Looking for the measured MIC of CCCCCCCC(=O)N[C@@H](CCN)C(=O)N[C@H](C(=O)N[C@@H](CCN)C(=O)N[C@H]1CCNC(=O)[C@H]([C@@H](C)O)NC(=O)[C@H](CCN)NC(=O)[C@H](CCN)NC(=O)[C@H](CCCc2ccccc2)NC(=O)[C@@H](CC(C)C)NC(=O)[C@H](CCN)NC1=O)[C@@H](C)O (Octanoyl-[Dab]T[Dab][Dab][Dab][dL][hhPhe][Dab][Dab]T; lactam 4-C) , can you help?
Resp: 1

Req: Please report the recorded MIC for CCCCCCCC(=O)N[C@@H](CCN)C(=O)N[C@H](C(=O)N[C@@H](CCN)C(=O)N[C@H]1CCNC(=O)[C@H]([C@@H](C)O)NC(=O)[C@H](CCN)NC(=O)[C@H](CCN)NC(=O)[C@H](CCCc2ccccc2)NC(=O)[C@@H](Cc2ccccc2)NC(=O)[C@H](CCN)NC1=O)[C@@H](C)O .
Resp: 0.5

Req: Requested field: MIC. Item: CC(=O)N[C@H](Cc1c(F)c(F)c(F)c(F)c1F)C(=O)N[C@@H](CCN)C(=O)N[C@H](C(=O)N[C@@H](CCN)C(=O)N[C@H]1CCNC(=O)[C@H]([C@@H](C)O)NC(=O)[C@H](CCN)NC(=O)[C@H](CCN)NC(=O)[C@H](CC(C)C)NC(=O)[C@@H](Cc2ccccc2)NC(=O)[C@@H](CCN)NC1=O)[C@H](C)O
Resp: 8

* * *

# RUN DESCRIPTION: Hemolytic activity in human RBC at 400 ug/ml after 1 hr
# Assay type: toxicity, cell-based, Erythrocyte
# RUN PARAMETERS: red blood cells (erythrocytes), at 400 µg/mL, read-out: Activity
Positions of bridges follow the written chain, without caps; N, C: chain ends. Non-standard residues stand in square brackets, D forms with d. Residues, ends and D or L forms follow the SMILES beside them. *: point of attachment. Phe(3,4,5-F3) = N[C@@H](Cc1cc(F)c(F)c(F)c1)C(=O)O; hPhe = N[C@@H](CCc1ccccc1)C(=O)O; Octanoyl = CCCCCCCC(=O)*; Dab = NCC[C@H](N)C(=O)O
ASSAY METRIC: hemolysis at 1 h, 400 ug/ml

Req: GET /values?readout=hemolysis at 1 h, 400 ug/ml&item= CC(=O)N[C@H](Cc1ccc(Br)cc1)C(=O)N[C@@H](CCN)C(=O)N[C@H](C(=O)N[C@@H](CCN)C(=O)N[C@H]1CCNC(=O)[C@H]([C@@H](C)O)NC(=O)[C@H](CCN)NC(=O)[C@H](CCN)NC(=O)[C@H](CC(C)C)NC(=O)[C@@H](Cc2ccccc2)NC(=O)[C@@H](CCN)NC1=O)[C@H](C)O
Resp: < 10%

Req: Give its hemolysis at 1 h, 400 ug/ml value. Item: CCCCCCCC(=O)N[C@@H](CCN)C(=O)N[C@H](C(=O)N[C@@H](CCN)C(=O)N[C@H]1CCNC(=O)[C@H]([C@@H](C)O)NC(=O)[C@H](CCN)NC(=O)[C@H](CCN)NC(=O)[C@H](CCc2ccccc2)NC(=O)[C@@H](CC(C)C)NC(=O)[C@H](CCN)NC1=O)[C@@H](C)O (Octanoyl-[Dab]T[Dab][Dab][Dab][dL][hPhe][Dab][Dab]T; lactam 4-C)
Resp: < 10%

Req: // query hemolysis at 1 h, 400 ug/ml value for entry CCCCCCCC(=O)N[C@@H](CCN)C(=O)N[C@H](C(=O)N[C@@H](CCN)C(=O)N[C@H]1CCNC(=O)[C@H]([C@@H](C)O)NC(=O)[C@H](CCN)NC(=O)[C@H](CCN)NC(=O)[C@H](Cc2cc(F)c(F)c(F)c2)NC(=O)[C@@H](CC(C)C)NC(=O)[C@H](CCN)NC1=O)[C@@H](C)O (Octanoyl-[Dab]T[Dab][Dab][Dab][dL][Phe(3,4,5-F3)][Dab][Dab]T; lactam 4-C)
Resp: < 10%

Req: For CC(=O)N[C@H](Cc1cccc(F)c1)C(=O)N[C@@H](CCN)C(=O)N[C@H](C(=O)N[C@@H](CCN)C(=O)N[C@H]1CCNC(=O)[C@H]([C@@H](C)O)NC(=O)[C@H](CCN)NC(=O)[C@H](CCN)NC(=O)[C@H](CC(C)C)NC(=O)[C@@H](Cc2ccccc2)NC(=O)[C@@H](CCN)NC1=O)[C@H](C)O , what is its reported hemolysis at 1 h, 400 ug/ml?
Resp: < 10%

* * *

Record form. Attribute: MIC. Fill in for each entry.
# Test system: Escherichia coli
# RUN DESCRIPTION: Antimicrobial activity against […] Escherichia coli harboring mcr-1 assessed as bacterial growth inhibition incubated for 20 hrs by broth microdilution method
# Format: functional
Positions of bridges follow the written chain, without caps; N, C: chain ends. Non-standard residues stand in square brackets, D forms with d. Residues, ends and D or L forms follow the SMILES beside them. *: point of attachment. dPhe(3,4,5-F3) = N[C@H](Cc1cc(F)c(F)c(F)c1)C(=O)O; Benzoyl(4-Ph) = O=C(c1ccc(-c2ccccc2)cc1)*; Phe(3-F) = N[C@@H](Cc1cccc(F)c1)C(=O)O; Phe(4-F) = N[C@@H](Cc1ccc(F)cc1)C(=O)O; dPhe(4-F) = N[C@H](Cc1ccc(F)cc1)C(=O)O; hLeu = CC(C)CC[C@H](N)C(=O)O; Octanoyl = CCCCCCCC(=O)*; Dab = NCC[C@H](N)C(=O)O
Your answer should be a plain number; it is taken to be in µg/mL.

Req: GET /values?readout=MIC&item= CCCCCCCC(=O)N[C@@H](CCN)C(=O)N[C@H](C(=O)N[C@@H](CCN)C(=O)N[C@H]1CCNC(=O)[C@H]([C@@H](C)O)NC(=O)[C@H](CCN)NC(=O)[C@H](CCN)NC(=O)[C@H](CC(C)C)NC(=O)[C@@H](Cc2ccc(F)cc2)NC(=O)[C@H](CCN)NC1=O)[C@@H](C)O (Octanoyl-[Dab]T[Dab][Dab][Dab][dPhe(4-F)]L[Dab][Dab]T; lactam 4-C)
Resp: 2

Req: MIC for CCCCCCCC(=O)N[C@@H](CCN)C(=O)N[C@H](C(=O)N[C@@H](CCN)C(=O)N[C@H]1CCNC(=O)[C@H]([C@@H](C)O)NC(=O)[C@H](CCN)NC(=O)[C@H](CCN)NC(=O)[C@H](CCC(C)C)NC(=O)[C@@H](Cc2ccccc2)NC(=O)[C@H](CCN)NC1=O)[C@@H](C)O (Octanoyl-[Dab]T[Dab][Dab][Dab][dF][hLeu][Dab][Dab]T; lactam 4-C) ?
Resp: 1

Req: Query (molecule): CCCCCCCC(=O)N[C@@H](CCN)C(=O)N[C@H](C(=O)N[C@@H](CCN)C(=O)N[C@H]1CCNC(=O)[C@H]([C@@H](C)O)NC(=O)[C@H](CCN)NC(=O)[C@H](CCN)NC(=O)[C@H](CC(C)C)NC(=O)[C@@H](Cc2cc(F)c(F)c(F)c2)NC(=O)[C@H](CCN)NC1=O)[C@@H](C)O (Octanoyl-[Dab]T[Dab][Dab][Dab][dPhe(3,4,5-F3)]L[Dab][Dab]T; lactam 4-C) ; field requested: MIC
Resp: 1

Req: Item under review: CCCCCCCC(=O)N[C@@H](CCN)C(=O)N[C@H](C(=O)N[C@@H](CCN)C(=O)N[C@H]1CCNC(=O)[C@H]([C@@H](C)O)NC(=O)[C@H](CCN)NC(=O)[C@H](CCN)NC(=O)[C@H](Cc2cccc(F)c2)NC(=O)[C@@H](CC(C)C)NC(=O)[C@H](CCN)NC1=O)[C@@H](C)O (Octanoyl-[Dab]T[Dab][Dab][Dab][dL][Phe(3-F)][Dab][Dab]T; lactam 4-C) . Reported MIC?
Resp: 4

Req: Please look up its MIC: CC[C@H](C)[C@@H]1NC(=O)[C@@H](CC(C)C)NC(=O)[C@H](CCN)NC(=O)[C@@H](NC(=O)[C@@H](CO)NC(=O)[C@@H](NC(=O)[C@H](CCN)NC(=O)c2ccc(-c3ccccc3)cc2)[C@@H](C)O)CCNC(=O)[C@H](CC(C)C)NC(=O)[C@H](CCN)NC(=O)[C@H](CCN)NC1=O ({Benzoyl(4-Ph)}-[Dab]T[dS][Dab][Dab][dL]I[Dab][Dab]L; lactam 4-C)
Resp: 4

Req: Quick one: MIC for CCCCCCCC(=O)N[C@@H](CCN)C(=O)N[C@H](C(=O)N[C@@H](CCN)C(=O)N[C@H]1CCNC(=O)[C@H]([C@@H](C)O)NC(=O)[C@H](CCN)NC(=O)[C@H](CCN)NC(=O)[C@H](Cc2ccc(F)cc2)NC(=O)[C@@H](CC(C)C)NC(=O)[C@H](CCN)NC1=O)[C@@H](C)O (Octanoyl-[Dab]T[Dab][Dab][Dab][dL][Phe(4-F)][Dab][Dab]T; lactam 4-C) ?
Resp: 2

Every entry's value here was drawn from ChEMBL document CHEMBL5537158.
